Reference for the values: ChEMBL document CHEMBL1765073

target: Prostaglandin G/H synthase 1 (Ovis aries); assay: Inhibition of ovine COX-1 at 100 uM after 2 mins by fluorescence assay
MEASURED PARAMETER: inhibition (%)

| COMPOUND STRING | SCALE UNIT | VALUE |
| --- | --- | --- |
| NS(=O)(=O)c1ccc(-n2nc(CCCNC(=O)Nc3ccccc3)cc2-c2ccccc2)cc1 | % | 16 |

I. CC(C)c1cccc(C(C)C)c1NC(=O)NCCCc1cc(-c2ccccc2)n(-c2ccc(S(N)(=O)=O)cc2)n1
II. NS(=O)(=O)c1ccc(-n2nc(CCCNC(=O)Nc3ccc(OC(F)(F)F)cc3)cc2-c2ccccc2)cc1
Asked: Between item I and item II , which reported inhibition is smaller? Give the label of your selection.
Given back: I

###

target: Prostaglandin G/H synthase 1 (Ovis aries) (UniProt P05979); test: Inhibition of ovine COX-1 at 100 uM after 2 mins by fluorescence assay
MEASURED PARAMETER: inhibition (%)

| COMPOUND STRING | MEASURED ON | VALUE |
| --- | --- | --- |
| NS(=O)(=O)c1ccc(-n2nc(CCCNC(=O)NC34CC5CC(CC(C5)C3)C4)cc2-c2ccccc2)cc1 | Prostaglandin G/H synthase 1 (Ovis aries) (UniProt P05979) | 7 |

A. CS(=O)(=O)c1ccc(-n2nc(CNC(=O)Nc3ccc(C(F)(F)F)cc3)cc2-c2ccccc2)cc1
B. NS(=O)(=O)c1ccc(-n2nc(NC(=O)Nc3cccc(C(F)(F)F)c3)cc2-c2ccccc2)cc1
C. CC(C)(C)c1cc(CNC(=O)Nc2cccc(C(F)(F)F)c2)nn1-c1ccc(S(C)(=O)=O)cc1
D. NS(=O)(=O)c1ccc(-n2nc(CCCNC(=O)Nc3ccc(C(F)(F)F)cc3)cc2-c2ccccc2)cc1
Asked: // sort entries: inhibition, high to low Reply with the labels, ordered as the question asks.
Given back: B, D, A, C
(B: 34%, D: 23%, A: 11%, C: 2%)

###

test: Half life in Sprague-Dawley rat at 1 mg/kg, po; type: ADME, organism-based; set-up: dose 1 mg/kg, route oral; details: in vivo
MEASURED PARAMETER: half-life (h)
Entry rule: numbers only, all in h.

Asked: Any idea what half-life was measured for NS(=O)(=O)c1ccc(-n2nc(CCCNC(=O)Nc3ccc(OC(F)(F)F)cc3)cc2-c2ccccc2)cc1 ?
Given back: 12

###

Target: Prostaglandin G/H synthase 1 (Ovis aries)
Sequence (whole entry): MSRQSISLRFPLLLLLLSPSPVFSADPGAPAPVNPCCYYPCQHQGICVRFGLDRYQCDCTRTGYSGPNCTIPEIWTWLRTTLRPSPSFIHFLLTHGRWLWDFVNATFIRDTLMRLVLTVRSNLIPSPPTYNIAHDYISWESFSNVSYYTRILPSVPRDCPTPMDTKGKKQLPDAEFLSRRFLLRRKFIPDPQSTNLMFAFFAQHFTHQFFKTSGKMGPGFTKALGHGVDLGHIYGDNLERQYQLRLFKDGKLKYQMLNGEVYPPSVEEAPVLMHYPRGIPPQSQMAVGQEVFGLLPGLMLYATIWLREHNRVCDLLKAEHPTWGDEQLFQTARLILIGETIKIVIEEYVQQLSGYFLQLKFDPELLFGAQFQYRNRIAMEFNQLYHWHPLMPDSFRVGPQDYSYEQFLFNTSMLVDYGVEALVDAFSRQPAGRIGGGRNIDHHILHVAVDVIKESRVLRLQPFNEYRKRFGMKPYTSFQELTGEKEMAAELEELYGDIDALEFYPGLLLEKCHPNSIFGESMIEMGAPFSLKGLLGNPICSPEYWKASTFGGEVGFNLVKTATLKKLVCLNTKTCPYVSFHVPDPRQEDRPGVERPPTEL
Assay: Inhibition of ovine COX-1 at 100 uM after 2 mins by fluorescence assay
MEASURED PARAMETER: inhibition (%)

| COMPOUND STRING | inhibition, % |
| --- | --- |
| NS(=O)(=O)c1ccc(-n2nc(CCCNC(=O)NC3CCCCCC3)cc2-c2ccccc2)cc1 | 10 |
| NS(=O)(=O)c1ccc(-n2nc(CCCNC(=O)Nc3ccc(Cl)cc3)cc2-c2ccccc2)cc1 | 15 |

I. CS(=O)(=O)c1ccc(-n2nc(CCCNC(=O)Nc3cccc(C(F)(F)F)c3)cc2-c2ccccc2)cc1
II. Cc1ccc(-c2cc(CCCNC(=O)Nc3cccc(C(F)(F)F)c3)nn2-c2ccc(S(N)(=O)=O)cc2)cc1
Asked: Please let me know which one, I or II , has a lower measured inhibition value. Lab log: write the label of the selected item as the result.
Given back: I
